tested_on: BTK-WT (Homo sapiens)
Construct: purified from insect cells as a full-length construct containing an N-terminal 6X-His tag; His6 (N); made in house; host or cells: insect cells (baculovirus Sf21 in Method B)
Sequence (Q06187 whole entry): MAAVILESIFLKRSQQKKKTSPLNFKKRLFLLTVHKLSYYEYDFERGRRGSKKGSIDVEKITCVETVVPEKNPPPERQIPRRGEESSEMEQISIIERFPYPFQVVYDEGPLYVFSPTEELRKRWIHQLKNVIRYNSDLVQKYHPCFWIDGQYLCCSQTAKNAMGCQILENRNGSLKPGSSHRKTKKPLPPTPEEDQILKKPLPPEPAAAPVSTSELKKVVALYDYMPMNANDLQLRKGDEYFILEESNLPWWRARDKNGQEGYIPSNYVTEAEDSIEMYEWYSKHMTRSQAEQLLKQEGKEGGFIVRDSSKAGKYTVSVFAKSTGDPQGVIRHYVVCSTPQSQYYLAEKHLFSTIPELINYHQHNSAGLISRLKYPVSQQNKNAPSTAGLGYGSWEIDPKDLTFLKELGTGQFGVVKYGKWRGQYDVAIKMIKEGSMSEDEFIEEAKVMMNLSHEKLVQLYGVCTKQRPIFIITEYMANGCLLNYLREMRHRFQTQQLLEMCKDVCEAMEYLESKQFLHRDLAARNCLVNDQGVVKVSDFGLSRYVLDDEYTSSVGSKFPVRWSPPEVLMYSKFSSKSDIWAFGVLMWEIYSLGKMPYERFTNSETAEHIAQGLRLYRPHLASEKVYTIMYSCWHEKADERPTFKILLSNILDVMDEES
experimental_protocol: Btk in vitro inhibitory activity (one of Method A TR-FRET, Method B electrophoretic mobility shift, Method C radiometric filter binding)
Assay type: biochemical
stated_conditions: D-compounds panel data; read-out: IC50 BTK-WT
pIC50: −log10 of the molar value.
property: pIC50

Known results for compounds:
C[C@@H]1[C@H](NC(=O)c2ccc(C3COC3)cc2)CCCN1c1cnc(C(N)=O)c(Nc2cnn(C)c2)n1
≥ 8.00
C[C@@H]1[C@H](NC(=O)c2ccc3c(c2)C(C)(C)CO3)CCCN1c1cnc(C(N)=O)c(Nc2cnn(C)c2)n1
≥ 8.00
C[C@@H]1[C@H](NC(=O)c2ccc(C3CC3)nc2)CCCN1c1cnc(C(N)=O)c(Nc2ccc(OC3CCC(F)(F)CC3)cc2)n1
7.00 to 8.00

The recorded pIC50 for C[C@@H]1[C@H](NC(=O)N(C)C)CCCN1c1cnc(C(N)=O)c(Nc2ccc(N3CCN(C)CC3)cn2)n1 is 6.00 to 7.00

The recorded pIC50 for C[C@@H]1[C@H](NC(=O)N(C)C)CCCN1c1cnc(C(N)=O)c(Nc2ccc(N3CCN(C)CC3)cc2)c1 is 6.00 to 7.00

The recorded pIC50 for C[C@@H]1[C@H](NC(=O)c2ccc(C3CC3)cc2)CCCN1c1cnc(C(N)=O)c(Nc2ccc(N3CCN(C)CC3)cc2)n1 is ≥ 8.00

The recorded pIC50 for C[C@@H]1[C@H](NC(=O)c2ccc(C3CC3)cc2)CCCN1c1cnc(C(N)=O)c(Nc2ccc(OC3CCCN(C)C3)cc2)n1 (stereo partly shown) is ≥ 8.00

* * *

tested_on: UniProt P12931
Sequence (P12931 whole entry): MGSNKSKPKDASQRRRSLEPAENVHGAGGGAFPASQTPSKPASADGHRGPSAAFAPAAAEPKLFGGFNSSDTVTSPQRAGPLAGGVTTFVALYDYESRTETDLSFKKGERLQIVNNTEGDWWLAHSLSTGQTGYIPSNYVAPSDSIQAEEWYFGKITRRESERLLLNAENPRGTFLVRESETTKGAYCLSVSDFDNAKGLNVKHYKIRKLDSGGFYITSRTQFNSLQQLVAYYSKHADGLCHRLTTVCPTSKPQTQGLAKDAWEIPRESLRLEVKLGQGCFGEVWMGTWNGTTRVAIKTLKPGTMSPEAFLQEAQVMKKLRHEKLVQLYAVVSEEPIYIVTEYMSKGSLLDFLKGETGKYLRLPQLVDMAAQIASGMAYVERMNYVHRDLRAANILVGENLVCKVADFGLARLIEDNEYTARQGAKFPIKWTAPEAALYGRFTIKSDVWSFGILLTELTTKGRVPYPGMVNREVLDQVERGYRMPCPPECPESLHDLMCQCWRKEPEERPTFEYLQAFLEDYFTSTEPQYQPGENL
experimental_protocol: Inhibition of a panel of kinases, in vitro HotSpot kinase assay: SRC
Type: biochemical
stated_conditions: E compounds, Table 17
pIC50: −log10 of the molar value.
property: pIC50

C=CC(=O)N1CC[C@@H](N(C)c2cnc(C(N)=O)c(Nc3cnn(CCOC)c3)n2)C1 [Example E-110]
6.00 to 7.00
CC(C)c1ccc(Nc2nc(N3CCC[C@@H](N4CCC[C@@H](Nc5cc(Cl)cc(C(F)(F)F)c5)C4=O)C3)nnc2C(N)=O)cc1 [Example E-128]
7.00 to 8.00
C[C@@H]1[C@H](NC(=O)c2ccc(C3CC3)cc2)CCCN1c1cnc(C(N)=O)c(Nc2ccc(N3CCN(C4COC4)C[C@@H]3C)cc2)n1 [Example E-142]
7.00 to 8.00
Cc1cc(Nc2nc(N3CC[C@H](O)[C@@H](N4CCC[C@@H](Nc5cc(Cl)cc(C(F)(F)F)c5)C4=O)C3)nnc2C(N)=O)sn1 [Example E-10]
≥ 8.00
C=CC(=O)N1CCC[C@@H](N(C)c2cnc(C(N)=O)c(Nc3ccc(C4CCN(C5CCCC5)CC4)cc3)n2)C1 [Example E-125]
≥ 8.00

Now for a further molecule.
Considering Cn1cc(Nc2nc(N3CCCC(C)(NC(=O)c4ccc(C5CC5)cc4)C3)cnc2C(N)=O)cn1 (stereo not shown) [Example E-150] , its pIC50 with UniProt P12931 was recorded as 5.00 to 6.00
